experiment: The drug is tested on Bacteroides cellulosilyticus strain: DSM14838 for biotransformation. The drug concentrations were measured before and after a 12-h incubation by liquid-chromatography-coupled mass spectrometry (LC–MS); conditions: 2 µM
Measure: Bacterial Biotransformation

CC(C)c1c(CN(C)C(C)Cc2ccccc2)n(C)n(-c2ccccc2)c1=O (configuration not stated) [FAMPROFAZONE] ... Compound metabolized
CCOC(=O)C1=C[C@]2(CC)CCCN3CCc4c(n1c1ccccc41)[C@@H]32 [VINPOCETINE] ... Compound NOT metabolized
C[C@]12C=CC(=O)C=C1CC[C@@H]1[C@@H]2C(=O)C[C@@]2(C)[C@H]1CC[C@]2(O)C(=O)CO [PREDNISONE] ... Compound NOT metabolized
CO[C@]12C[C@@H](COC(=O)c3cncc(Br)c3)CN(C)[C@@H]1Cc1cn(C)c3cccc2c13 [NICERGOLINE] ... Compound metabolized
NC(=O)N1c2ccccc2CC(=O)c2ccccc21 [OXCARBAZEPINE] ... Compound NOT metabolized

Prompt: In one line, give reported Bacterial Biotransformation of the entry CN1CCN(C2=Nc3cc(Cl)ccc3Nc3ccccc32)CC1 [CLOZAPINE] .
Completion: Compound NOT metabolized

Prompt: Look up and report measured Bacterial Biotransformation for this entry: C[C@]12CCC(=O)C=C1[C@@H]1C[C@@H]1[C@H]1[C@@H]3[C@@H]4C[C@@H]4[C@@]4(CCC(=O)O4)[C@@]3(C)CC[C@@H]12 [DROSPIRENONE]
Completion: Compound NOT metabolized

Prompt: Give the value of Bacterial Biotransformation reported for the following: OC(c1cc(C(F)(F)F)nc2c(C(F)(F)F)cccc12)C1CCCCN1 (configuration not stated) [MEFLOQUINE]
Completion: Compound NOT metabolized

Prompt: Using the record for Cc1ccc(-c2cc(C(F)(F)F)nn2-c2ccc(S(N)(=O)=O)cc2)cc1 [CELECOXIB] , state its measured Bacterial Biotransformation.
Completion: Compound NOT metabolized

Prompt: Supply measured Bacterial Biotransformation of CC(=O)OCC(=O)NCCCOc1cccc(CN2CCCCC2)c1 [ROXATIDINE ACETATE] in your reply.
Completion: Compound metabolized

Prompt: Fill in reported Bacterial Biotransformation for this entry: CN1[C@@H]2CC[C@H]1C[C@@H](OC(=O)c1c[nH]c3ccccc13)C2 [TROPISETRON]
Completion: Compound NOT metabolized

Prompt: Retrieve Bacterial Biotransformation measured for OC(Cn1cncn1)(Cn1cncn1)c1ccc(F)cc1F [FLUCONAZOLE] and print it.
Completion: Compound NOT metabolized

Prompt: Read the entry CC(=O)CCCCn1c(=O)c2c(ncn2C)n(C)c1=O [PENTOXIFYLLINE] and write its reported Bacterial Biotransformation.
Completion: Compound NOT metabolized

Prompt: Return value of Bacterial Biotransformation for input CN1CCN(C2=Nc3ccccc3Oc3ccc(Cl)cc32)CC1.O=C(O)CCC(=O)O [LOXAPINE SUCCINATE] , no commentary.
Completion: Compound NOT metabolized

Prompt: Give recorded Bacterial Biotransformation. Cc1ccc(S(=O)(=O)NC(=O)NN2CC3CCCC3C2)cc1 (configuration not stated) [GLICLAZIDE]
Completion: Compound NOT metabolized

Prompt: Assign Bacterial Biotransformation to the following record: CC(C)(C(=O)O)c1ccc(C(O)CCCN2CCC(C(O)(c3ccccc3)c3ccccc3)CC2)cc1 (configuration not stated) [FEXOFENADINE]
Completion: Compound NOT metabolized

Prompt: Give me measured Bacterial Biotransformation, please, for this compound: C[C@@H]1CC[C@H]2[C@@H](C)C(=O)O[C@@H]3O[C@@]4(C)CC[C@@H]1[C@]32OO4 [ARTEMISININ]
Completion: Compound metabolized
